Listed here are compounds together with their documented AUC.
# protocol.text: Concentration in blood of guinea pigs
# Format: in vivo
# measurement.setup: guinea pig, oral, 30 mg/kg in 1% methyl cellulose, plasma, HPLC, read-out: AUC 0-lim, area under a curve of concentration in blood vs. time
Just the number please, in µg·h/mL, no unit attached.

1) CCn1c(=O)c2ccc(N)nc2n(-c2cc(OC)cc(OC)c2)c1=O
458
2) CCCn1c(=O)c2ccc(N)nc2n(-c2cc(OC)cc(OC)c2)c1=O
256
3) COc1cc(OC)cc(-n2c(=O)n(CC(C)C)c(=O)c3ccc(N)nc32)c1
134

# evaluate next
Fill in: AUC of `CCCCn1c(=O)c2ccc(N)nc2n(-c2cc(OC)cc(OC)c2)c1=O` is ___
28.6
